For each record, write down the corresponding inhibition of growth at 10 µg/mL.
- System: Staphylococcus aureus
- measurementProtocol: Growth inhibition of Staphylococcus aureus NCIM 2602 at 10 ug/ml measured after 12 hrs relative to control
- Format: functional
- conditionDescription: NCIM 2602, 12 h, read-out: GI
One number for each entry, in %.

Consider the worked cases shown below.
# molecule, assayedTarget, measureUnit, inhibition of growth at 10 µg/mL
measured = [
    ("Cc1nc(-c2ccc(F)cc2)oc1-c1csc(-c2ccccc2)n1", "Staphylococcus aureus", "%", 40.7),
    ("Cc1nc(-c2ccc(F)cc2)oc1-c1csc(-c2cccc(Cl)c2)n1", "Staphylococcus aureus", "%", 35.7),
]

State the recorded inhibition of growth at 10 µg/mL for every item in the following list.
1. Cc1nc(-c2ccc(F)cc2)oc1-c1csc(-c2ccc(F)cc2)n1
2. Cc1nc(-c2ccccc2)oc1-c1csc(-c2cccc(Cl)c2)n1
3. Cc1nc(-c2ccccc2)oc1-c1csc(-c2ccccc2)n1
4. Cc1nc(-c2ccc(F)cc2)oc1-c1csc(-c2ccc(Br)cc2)n1
5. Cc1nc(-c2ccc(F)cc2)oc1-c1csc(Cc2cccc(Cl)c2)n1
6. CC1(C)S[C@@H]2[C@H](NC(=O)[C@H](N)c3ccccc3)C(=O)N2[C@H]1C(=O)O [AMPICILLIN]
7. Cc1nc(-c2ccccc2)oc1-c1csc(Cc2cccc(Cl)c2)n1

1: 51.4; 2: 55.6; 3: 89.9; 4: 56.6; 5: 82.4; 6: 98.9; 7: 81.3

Please report the measured inhibition of growth at 10 µg/mL for "Cc1nc(-c2ccccc2)oc1-c1csc(-c2ccc(Br)cc2)n1"
72.2
